Property: abundance fitness; scope: individual variants
B1: Myocardin, residues 363 to 406; numbered along this chain, Q8IZQ8 (parent)
chain: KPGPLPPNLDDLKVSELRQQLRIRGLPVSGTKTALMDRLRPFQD

variants of: B1; test: abundance fitness (aPCA) (normalised: wild type 0, dead -1); higher = more abundant; growth selection in yeast, the domain comes from the species named; settings: Homo sapiens
Would you mind answering with just the numeric figure?

Here's what some known entries look like.
seq_text	abundance fitness
KPGPLPPNLDDLKVSELRQQLRIRGLPVSGTKTALMDRLRPFND [Q43N]	-0.213
KPGPLPPNLVDLKVSELRQQLRIRGLPVSGTKTALMDRLRPFQD [D10V]	0.076
KPGPLPPNLDDLKVSELRQQLRIRELPVSGTKTALMDRLRPFQD [G25E]	-0.274
KPGPLPPNLDDLKVSELRQQLRIRGLPVSGTKTALMDRLRPDQD [F42D]	-0.061
KPGPLPPNLDYLKVSELRQQLRIRGLPVSGTKTALMDRLRPFQD [D11Y]	-0.183
KPGPLPPNLDDLKVSELRQQLRIRCLPVSGTKTALMDRLRPFQD [G25C]	-0.342
KPGPLPPNLDDLKVSELRQQLRIRGLPVSGTKTALMDRLRKFQD [P41K]	-0.305
KPGPLPPNLDDLKVSELRQQLRIRGLPVSGTKTALMDRLRPGQD [F42G]	-0.278
KPGPLPPNLDDLKVSELRQQLRIRGLPVSGTKTTLMDRLRPFQD [A34T]	-0.076
KPGPLPPNLDDLKVSELRQQLRIRGLPVSGVKTALMDRLRPFQD [T31V]	-0.189

Record request: abundance fitness value, item KPGPLPPNLDDLKVSEYRQQLRIRGLPVSGTKTALMDRLRPFQD [L17Y] -1.02

Record request: abundance fitness value, item KPGPLPPNLDDLKVSELRQQLRIRGLPVSGTKTADMDRLRPFQD [L35D] -0.459

Record request: abundance fitness value, item KPGPLPPNLDDLKVSELRQQLRIRGLPVSGTKTALMDRYRPFQD [L39Y] -0.505

Record request: abundance fitness value, item KPGPLPPNLDDLKVSELRQQLRIRGLPVSGTPTALMDRLRPFQD [K32P] -0.583

Record request: abundance fitness value, item KPGPLPPNLDFLKVSELRQQLRIRGLPVSGTKTALMDRLRPFQD [D11F] -0.175

Record request: abundance fitness value, item KPGPLPPNLDDLKVSEVRQQLRIRGLPVSGTKTALMDRLRPFQD [L17V] -0.606

Record request: abundance fitness value, item SPGPLPPNLDDLKVSELRQQLRIRGLPVSGTKTALMDRLRPFQD [K1S] -0.672

Record request: abundance fitness value, item KPGPLPPNLDRLKVSELRQQLRIRGLPVSGTKTALMDRLRPFQD [D11R] -0.135

Record request: abundance fitness value, item KPGPLPPNLDDLKVSELRQQLRIRGHPVSGTKTALMDRLRPFQD [L26H] -1.1

These data points were gathered from the Human Domainome abundance scans (Beltran et al. 2025).
